Reported Neut IC50 (µg/ml) subtype A values for the following binders.
target_system: RSV F protein of subtype A (strain A2) on recombinant mKate-RSV (Respiratory syncytial virus subtype A …, UniProt P03420 26-574)
protocol_notes: cell-based or functional assay
measured_metric: Neut IC50 (µg/ml) subtype A (µg/mL)

binder	measured_metric	readout_qualifier	assay_value
ADI-14550 (antibody, V domains shown) VH: QVQLVQSGGGVVQPGRSLRLSCAASGFTFSDYAMHWVRQAPGKGLQWVSLISYNGRKKYYADSVKGRFTISRDDSKNTLYLQMNPLRPDDTAVYYCARDGDIVAVPAAIGLDYWGQGTLVTVSS VL: DIVLTQSPESLAVSLGERATINCNSSQSVLYTSNNKNYLAWYQQKSGQPPKLLIYWASTRESGVPERFSGSGSGTDFTLTISSLQAEDVAVYYCQQYSSPPYTFGQGTKLEIK	Neut IC50 (µg/ml) subtype A	=	2.62
ADI-14537 (antibody, V domains shown, IgG; also called Antibody Number 97) VH: EVQLVESGGGLVKPGGSLRLSCAASGFIFRNAWMSWVRQAPGKGLEWVGRIKRTSEGGSVDYATPVQGRFSISRDDSRKTLYLQMNSLETDDTAVYYCSTGPPYSYFDSSGYSVVDYWGLGTLVTVSS VL: QPVLTQPPSASGTPGQRVTISCSASSSNIGDNYFYWYQQLPGKAPTLLMYGSDQRSSGVPDRFSGSQSGTSASLAISGLRSEDEADYYCAAWDDSLSGPVFGGGTKLTVL	Neut IC50 (µg/ml) subtype A	=	0.272
ADI-14561 (antibody, V domains shown, IgG) VH: QVQLVQSGAEVKKPGSSVRVTCKASGGTVSDYAITWVRQAPGQGLEWMGGFIPMFGVAKDAEKFQGRVTLTGDKSTNAVYMELSSLTSEDTAVYYCARSKRLPAGLSTSDYYYYYLDVWGKGTTVTVSS VL: EIVLTQSPGTLSLSPGEGATLSCTASQNVFRTHVAWYQQTPGQAPRLLIYGGSTRATGIPDRFSGSGSGTDFTLIISRLEPEDFAVYYCHHFGTTPWTFGQGTKVEIK	Neut IC50 (µg/ml) subtype A	>	10
ADI-14555 (antibody, V domains shown) VH: QVQLVQSGGGLVQPGGSLRLSCAASGLTFSSYAMSWVRQAPGKELEWVSSISESGVDTYYADSVKGRFTVSRDNSKSTLYLQMSSLGGDDTAVYYCAKAYCSNKACHGGYFDYWGQGTLVTVSS VL: ETTLTQSPDTLSLSPGERATLSCRASQSVRNYLAWYRQKPGQAPRLLIYDASNLATGIPARFSGSGSGTDFTLTISSLEPEDFAVYYCHQRSDWPLTFGPGTKVEIK	Neut IC50 (µg/ml) subtype A	>	10
ADI-14541 (antibody, V domains shown) VH: EVQLVESGGGLVRPGGSLRLSCAASGFAFSSYSLHWVRQAPGRGLEWVASISAGSSFTDYAASVRGRFTISRNIANSLYLQMNRLRAEDTAVYYCARVIGDGTILGVVF VL: QSVLTQPPSVSGAPGQRVTISCTGGRSNIGAGYDVHWYQQLPGTAPKLLIYGNINRPSGVPDRFSGSKSGTSASLAITGLLAEDEADYYCQSYDSSLSVIFGGGTKLTVL	Neut IC50 (µg/ml) subtype A	=	0.023
ADI-14559 (antibody, V domains shown, IgG; also called Antibody Number 119) VH: EVQLLESGGGLVKPGGSLRLSCAASGFIFTNAWMSWVRQAPGKGLEWVGRIKRKTETGTTDYAPPVKGRFTISRDDSRSTLYLQMNSLKTEDTAVYYCTTGPPYQYYDSTGYSVVDYWGQGTLVTVSS VL: SYELTQPPSASGTPGQRVTISCSGSSSNIGSNIGINYVYWYQQLPGTAPKLLIYSTNQRPSGVPDRFSGSQSGTSASLAISGLRSEDEADYYCAAWDDSLSGPVFGGGTKLTVL	Neut IC50 (µg/ml) subtype A	=	0.057
ADI-14538 (antibody, V domains shown, IgG; also called Antibody Number 98) VH: EVQLVESGGGVVQPGRSLRLSCAVSGFTFSNFGMHWVRQAPGKGLEWVAAISYDGRKTFQADSVKGRFIISRDNLKNTLNLQMNSLKTEDTAVYYCAKSSRFLDWLYNMDFWGQGTTVTVSS VL: SYELTQPPSVSEAPGKTATITCGGIILGTSSVHWFQQKSGQAPVLVIYYDSDRPSGIPERFSGSHSGDTATLTISRVEVGDEADYYCQVWDNSHSQGVFGGGTQLTVL	Neut IC50 (µg/ml) subtype A	>	10
ADI-14556 (antibody, V domains shown) VH: EVQLVESGGGLVQPGGSLRLSCAASGFTFRSYWMTWVRQAPGKGLEWVASINDEGNTKYYVDSLKGRFTISRDNAKNSLYLQMNSLRAEDTAVYYCARESGLPRGAFQIWGPGTMVTVSS VL: EIVLTQSPVTLSLSPGERATLSCRASQSVGTFLAWYQHKPGQAPRLLIYDASNRASAIPARFSGSGSGTDFTLTISSLEPEDFAVYYCQHRSDWWTFGQGTKVEIK	Neut IC50 (µg/ml) subtype A	>	10
ADI-14552 (antibody, V domains shown, IgG) VH: EVQLLESGPELKKPGSSVKVSCKASADTFNGHSIAWVRQAPGQGLEWVGGFIPIFGKAYYAQNFQGTVTISADSSTRTVYMDLFNLRSEDTAVYYCARSRKNVIGDTSAWEHMYFYMDVWGTGTTVTVSS VL: EIVLTQSPGTLSLSPGERVTLSCRASESINKNTYLAWYQQKPGQAPRLLIYGASSRATGIPDRFSGSGSGTDFTLTISRLEPEDSAVYYCQQYGRSMTFGGGTKVEIK	Neut IC50 (µg/ml) subtype A	>	10
ADI-14557 (antibody, V domains shown) VH: QVQLQQWGAGLLKPSETLSLTCQVYGVSFSDYYWNWIRQSPGKGLEWIGDVNHIGNTDYNPSLKSRVSISVDTSKNQFSLTLRSVTAADTALYYCARGRKLFEVPPKAPDYWGQGTLVTVSS VL: DIVMTQSPGTLSLSPGERATLSCRASQSVSSTYLAWYQQKPGQAPRLLIYGASIRATGIPDRFSGVGSGTDFTLTISRLEPEDVAVYYCQQYGSSPQTFGQGTKVEIK	Neut IC50 (µg/ml) subtype A	>	10
